EXPERIMENTAL SYSTEM: CDK12 (aa686-1082)/Cyclin K complex (Homo sapiens, UniProt Q9NYV4)
Construct: CDK12 (aa686-1082)/Cyclin K complex
Sequence (Q9NYV4 686-1082, species assumed): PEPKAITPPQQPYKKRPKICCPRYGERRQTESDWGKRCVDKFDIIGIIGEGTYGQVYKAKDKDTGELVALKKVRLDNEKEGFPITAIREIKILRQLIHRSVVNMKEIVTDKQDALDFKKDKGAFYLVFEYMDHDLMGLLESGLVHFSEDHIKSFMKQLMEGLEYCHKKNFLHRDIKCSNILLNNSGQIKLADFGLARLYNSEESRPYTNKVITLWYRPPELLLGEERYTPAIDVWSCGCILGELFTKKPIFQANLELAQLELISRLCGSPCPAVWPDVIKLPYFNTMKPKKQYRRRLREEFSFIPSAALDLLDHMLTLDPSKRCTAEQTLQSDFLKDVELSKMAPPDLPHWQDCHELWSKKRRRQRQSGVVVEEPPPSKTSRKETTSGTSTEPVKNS
Sequence (O75909 whole entry partner, species assumed, the tested form may be a part): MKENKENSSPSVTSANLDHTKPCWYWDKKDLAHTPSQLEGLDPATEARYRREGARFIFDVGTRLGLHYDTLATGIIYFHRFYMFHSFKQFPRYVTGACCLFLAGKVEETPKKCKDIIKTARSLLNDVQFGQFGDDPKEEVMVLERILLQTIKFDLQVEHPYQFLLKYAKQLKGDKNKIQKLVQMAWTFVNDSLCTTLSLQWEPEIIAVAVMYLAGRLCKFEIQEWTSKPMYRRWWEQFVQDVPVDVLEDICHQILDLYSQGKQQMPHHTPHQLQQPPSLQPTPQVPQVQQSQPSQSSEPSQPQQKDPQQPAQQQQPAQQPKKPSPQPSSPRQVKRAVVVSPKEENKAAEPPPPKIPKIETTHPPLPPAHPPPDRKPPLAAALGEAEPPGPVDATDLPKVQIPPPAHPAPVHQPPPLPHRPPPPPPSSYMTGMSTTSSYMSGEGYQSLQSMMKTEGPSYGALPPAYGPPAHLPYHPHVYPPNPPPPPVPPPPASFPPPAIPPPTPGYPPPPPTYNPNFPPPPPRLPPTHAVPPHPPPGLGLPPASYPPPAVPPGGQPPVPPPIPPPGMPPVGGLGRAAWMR
PROTOCOL: CDK12 inhibition assay (Caliper/LabChip EZ Reader kinase assay)
Assay type: biochemical
CONDITION NOTES: Table 1; CDK12 (aa686-1082)/Cyclin K 50 nM, ATP 2 mM, 3 hr at 27° C.
pIC50: −log10 of the molar value.
Measured pIC50, listed per entry for reference.

Example entries begin here.
O=C(c1ccc2c(-c3nc(N[C@H]4CCCNC4)ncc3C(F)(F)F)c[nH]c2c1)N1C[C@H](O)C(F)(F)C1 :: 5.30 to 6.70
FC(F)(F)c1cnc(N[C@H]2CCCNC2)nc1-c1c[nH]c2cc(-c3ccnnc3)ccc12 :: 5.30 to 6.70

Continue with the compound presented below.
For the compound CCc1cnc(N[C@H]2CCCNC2)nc1-c1c[nH]c2nc(C#N)ccc12 , what pIC50 is on record? < 5.30

---

EXPERIMENTAL SYSTEM: CDK7/Cyclin H/MAT1 complex (Homo sapiens, UniProt P50613)
Sequence (P50613 whole entry, species assumed): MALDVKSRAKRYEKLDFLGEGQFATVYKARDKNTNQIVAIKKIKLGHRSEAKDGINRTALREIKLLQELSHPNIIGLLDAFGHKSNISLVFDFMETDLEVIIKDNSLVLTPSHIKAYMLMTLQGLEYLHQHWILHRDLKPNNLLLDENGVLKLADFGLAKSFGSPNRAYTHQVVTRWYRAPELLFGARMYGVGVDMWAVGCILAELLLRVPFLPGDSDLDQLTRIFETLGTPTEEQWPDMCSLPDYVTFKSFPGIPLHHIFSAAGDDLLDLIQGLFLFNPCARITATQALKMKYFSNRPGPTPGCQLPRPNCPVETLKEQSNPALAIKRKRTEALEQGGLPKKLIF
Sequence (P51946 whole entry partner, species assumed): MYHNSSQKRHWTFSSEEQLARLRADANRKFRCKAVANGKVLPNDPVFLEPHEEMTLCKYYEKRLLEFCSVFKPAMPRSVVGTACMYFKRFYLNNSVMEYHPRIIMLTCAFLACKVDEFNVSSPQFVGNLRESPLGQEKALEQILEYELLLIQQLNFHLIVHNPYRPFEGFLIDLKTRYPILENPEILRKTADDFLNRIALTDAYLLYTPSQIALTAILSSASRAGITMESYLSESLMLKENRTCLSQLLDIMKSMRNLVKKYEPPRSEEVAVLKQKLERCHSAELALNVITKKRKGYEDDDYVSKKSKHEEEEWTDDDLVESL
Sequence (P51948 whole entry partner, species assumed): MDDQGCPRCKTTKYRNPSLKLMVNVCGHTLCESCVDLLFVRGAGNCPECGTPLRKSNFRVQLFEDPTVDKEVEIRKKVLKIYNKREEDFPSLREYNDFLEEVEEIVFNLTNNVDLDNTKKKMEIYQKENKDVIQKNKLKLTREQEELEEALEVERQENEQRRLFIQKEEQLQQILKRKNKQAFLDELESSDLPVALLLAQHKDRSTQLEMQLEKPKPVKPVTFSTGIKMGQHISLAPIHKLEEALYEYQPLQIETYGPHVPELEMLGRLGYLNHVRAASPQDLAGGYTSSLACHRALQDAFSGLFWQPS
PROTOCOL: CDK7 inhibition assay (Caliper/LabChip EZ Reader kinase assay)
Type: biochemical
CONDITION NOTES: Table 1; CDK7/Cyclin H/MAT1 6 nM, ATP 2 mM, 35 min at 27° C.
pIC50: −log10 of the molar value.
PROPERTY MEASURED: pIC50

CCOP(=O)(OCC)c1cccc2c(-c3nc(N[C@H]4CCCNC4)ncc3C(F)(F)F)c[nH]c12 [Compound 168] :: 5.30 to 6.70

For the molecule O=C(c1ccc2c(-c3nc(N[C@H]4CCCNC4)ncc3C(F)(F)F)c[nH]c2c1)N1CCCC1 [Compound 278] , what pIC50 is on record? 6.70 to 7.70

Next up: Brc1cnc(NC2CCCNC2)nc1-c1c[nH]c2ccccc12 (stereo in doubt) [Compound 133] > 7.70

Next up: N#Cc1cc(-c2ccc3c(-c4nc(N[C@H]5CCCNC5)ncc4C(F)(F)F)c[nH]c3c2)c[nH]1 [Compound 233] > 7.70

Next up: Fc1cc2[nH]cc(-c3nc(N[C@H]4CCCNC4)ncc3Cl)c2cc1F [Compound 111] > 7.70

Next up: CS(=O)(=O)Cc1ccc2c(-c3nc(N[C@H]4CCCNC4)ncc3C(F)(F)F)c[nH]c2c1 [Compound 219] > 7.70

Next up: FC(F)(F)c1cnc(N[C@H]2CCCNC2)nc1-c1c[nH]c2cc(-c3ccc4cn[nH]c4c3)ccc12 [Compound 329] 6.70 to 7.70

Next up: O=c1[nH]cc(-c2ccc3c(-c4nc(N[C@H]5CCCNC5)ncc4C(F)(F)F)c[nH]c3c2)c(=O)[nH]1 [Compound 333] > 7.70

Next up: FC(F)(F)c1cnc(N[C@H]2CCCNC2)nc1-c1c[nH]c2cc(-c3ccnc4ccccc34)ccc12 [Compound 339] 6.70 to 7.70

---

EXPERIMENTAL SYSTEM: CDK7/Cyclin H/MAT1 complex (Homo sapiens)
PROTOCOL: CDK7 inhibition assay (Caliper/LabChip EZ Reader kinase assay)
Type: biochemical
CONDITION NOTES: Table 1; CDK7/Cyclin H/MAT1 6 nM, ATP 2 mM, 35 min at 27° C.
PROPERTY MEASURED: IC50

Example entries begin here.
CCc1cnc(-c2c[nH]c3ncc(F)cc23)nc1N[C@H]1CCCNC1 [Compound 231] :: > 5000 nM
O=S1(=O)CCN(c2cccc3c(-c4nc(N[C@H]5CCCNC5)ncc4Cl)c[nH]c23)CC1 [Compound 196] :: < 20 nM

Continue with the molecule presented below.
For the molecule N#Cc1ccc2c(-c3nc(N[C@H]4CCCNC4)ncc3OC(F)F)c[nH]c2c1 [Compound 301] , what IC50 is on record? 20 to 200 nM
